- ASSAY_PROTOCOL: Cytotoxicity against HEK cells assessed as cell viability at 1.3 ug/ml after 24 hrs by CellTiter-Glo assay relative to control
- Type: toxicity, cell-based, HEK293
- CONDITION_SET: human, read-out: Activity
METRIC: viability at 24 h, 1.3 ug/ml

Given the entry CCCCCCCCCOc1cccc(CCN)c1 , report its measured viability at 24 h, 1.3 ug/ml.
60.5%

====

- ASSAY_PROTOCOL: Cytotoxicity against HEK cells assessed as cell viability at 1.6 ug/ml after 48 hrs by CellTiter-Glo assay relative to control
- Assay type: toxicity, cell-based, HEK293
- CONDITION_SET: human, read-out: Activity
METRIC: viability at 48 h, 1.6 ug/ml

Report viability at 48 h, 1.6 ug/ml for CCCCCCCCCCOc1ccc2[nH]cc(CCN)c2c1.Cl please.
17%

====

- ASSAY_PROTOCOL: Cytotoxicity against HEK cells assessed as cell viability at 0.8 ug/ml after 24 hrs by CellTiter-Glo assay relative to control
- Assay type: toxicity, cell-based, HEK293
- CONDITION_SET: human, read-out: Activity
METRIC: viability at 24 h, 0.8 ug/ml (%)
Form entry: value (%) — number only.

Requested read-out: viability at 24 h, 0.8 ug/ml. Entry: CCCCCCCCCCOc1ccc2[nH]cc(CCN)c2c1.Cl
59.7

====

- ASSAY_PROTOCOL: Cytotoxicity against HEK cells assessed as cell viability at 6.9 ug/ml after 24 hrs by CellTiter-Glo assay relative to control
- Assay type: toxicity, cell-based, HEK293
- CONDITION_SET: human, read-out: Activity
METRIC: viability at 24 h, 6.9 ug/ml (%)
Record the value in %, omitting the unit from your answer.

I am curious: what viability at 24 h, 6.9 ug/ml value has been reported for CCCCCCCCCCCCOc1ccc2[nH]cc(CCN)c2c1.Cl ?
10.4

====

- ASSAY_PROTOCOL: Cytotoxicity against HEK cells assessed as cell viability at 1.6 ug/ml after 24 hrs by CellTiter-Glo assay relative to control
- Type: toxicity, cell-based, HEK293
- CONDITION_SET: human, read-out: Activity
METRIC: viability at 24 h, 1.6 ug/ml (%)
// return numeric value only (unit: %, not printed)

Any idea what its viability at 24 h, 1.6 ug/ml is? The compound is CCCCCCCCCCOc1ccc2[nH]cc(CCN)c2c1.Cl
29.6

====

- ASSAY_PROTOCOL: Cytotoxicity against HEK cells assessed as cell viability at 5.3 ug/ml after 48 hrs by CellTiter-Glo assay relative to control
- Format: toxicity, cell-based, HEK293
- CONDITION_SET: human, read-out: Activity
METRIC: viability at 48 h, 5.3 ug/ml (%)
Quick reminder: number only, in %, skip the unit.

Which viability at 48 h, 5.3 ug/ml value belongs to CCCCCCOc1ccc2[nH]cc(CCN)c2c1.Cl ?
0.1

====

- System: Salmonella typhimurium
- ASSAY_PROTOCOL: Antibacterial activity against Salmonella typhimurium after 16 to 18 hrs by micro-dilution method
- Assay type: functional, Salmonella enterica subsp. enterica serovar Typhimurium
- CONDITION_SET: Salmonella enterica
With a cut-off of 7 µg/mL, any MIC strictly below it is called 1; any MIC meeting it or above is called -1.

Report whether reported MIC is lower than 7 µg/mL (strictly) for CCCCCCCCCOc1ccc2[nH]cc(CC[N+](C)(C)C)c2c1
-1

Same question, CC(C)CCCC(C)CCOc1ccc2[nH]cc(CCN)c2c1.Cl (configuration not stated) this time
1

Another: CCCCCCCCCOc1cccc(N)c1
-1

Queued: CCCCCCCCCCCCCCOc1ccc2[nH]cc(CCN)c2c1.Cl
-1

Try this compound too: CCCCCCCCCOc1ccc2[nH]cc(CCNC(=O)OC(C)(C)C)c2c1
-1

Note, next up: CCCCCCCCCOc1ccc2[nH]ccc2c1
-1

And CCCCCCCCCCCCOc1ccc2[nH]cc(CCN)c2c1.Cl ?
-1

And for CCCCCCCCCOc1cccc(CCN)c1 ?
1

Now this one: CCCCCCCCCCCCCCCOc1ccc2[nH]cc(CCN)c2c1.Cl
-1

Note, next up: CCCCCCCCCOc1ccc(CCN)cc1
1

====

- Test system: Vibrio cholerae
- ASSAY_PROTOCOL: Antibacterial activity against Vibrio cholerae after 16 to 18 hrs by micro-dilution method
- Assay type: functional
# strict inequality: MIC < 6 µg/mL yields criterion met, everything else yields criterion not met

compound=Cl.NCCc1c[nH]c2ccc(OCCCCCCCc3ccccc3)cc12 label_class="criterion not met"
compound=CCCCCCCCCOc1cccc(CCN)c1 label_class="criterion met"
compound=CCCCCCCCCOc1ccc2[nH]cc(CCNC(=O)OC(C)(C)C)c2c1 label_class="criterion not met"

# input for lookup
# strict comparison: is reported MIC < 6 µg/mL? input = CCCCCCCCCOc1ccc2[nH]ccc2c1
criterion not met

====

Listed below: MIC values for each entry.
- Test system: Escherichia coli
- ASSAY_PROTOCOL: Antibacterial activity against Escherichia coli BW25113 after 16 to 18 hrs by micro-dilution method
- Type: functional

structure=CCCCOc1ccc2[nH]cc(CCN)c2c1.Cl metric=MIC result="> 74.3 µg/mL"
structure=COc1ccc2c(CCN)c[nH]c2c1 metric=MIC result="> 60.8 µg/mL"
structure=CCCCCCCCCOc1ccc2[nH]ccc2c1 metric=MIC result="> 83 µg/mL"

Which MIC reading was recorded for the compound CCCCCCCCCCCCCCOc1ccc2[nH]cc(CCN)c2c1.Cl ?
> 119 µg/mL

Try CCCCCCCCCOc1cccc(N)c1 next.
> 40 µg/mL

Here is the next compound: Cc1[nH]c2ccc(O)cc2c1CCN
> 60.8 µg/mL

COc1ccc2[nH]cc(CCN)c2c1 ?
> 60.8 µg/mL

Repeat for the following compound: NCCc1c[nH]c2ccc(O)cc12
> 56.4 µg/mL

# iterate: NCCc1c[nH]c2ccccc12
> 51 µg/mL

Request: CCCCCCCCCCCCCCCOc1ccc2[nH]cc(CCN)c2c1.Cl
> 124 µg/mL

Same question for CCCCCCCCCOc1ccc2[nH]cc(CCNC(=O)OC(C)(C)C)c2c1 please.
> 130 µg/mL

====

- Test system: Acinetobacter baumannii
- ASSAY_PROTOCOL: Antibacterial activity against Acinetobacter baumannii after 16 to 18 hrs by micro-dilution method
- Assay type: functional
Entries and their measured MIC follow.

Please report the recorded MIC for CCCCOc1ccc2[nH]cc(CCN)c2c1.Cl .
> 74.3 mg/L

====

- Test system: Vibrio cholerae
- ASSAY_PROTOCOL: Antibacterial activity against Vibrio cholerae after 16 to 18 hrs by micro-dilution method
- Format: functional
Flag rule - MIC less than 6 µg/mL flags true; the remaining entries get false.

Check out these entries, answers already filled in.
compound=CCCCCCCCCCCCCCCOc1ccc2[nH]cc(CCN)c2c1.Cl label_class=false
compound=CCCCOc1ccc2[nH]cc(CCN)c2c1.Cl label_class=false
compound="CC(C)CCCC(C)CCOc1ccc2[nH]cc(CCN)c2c1.Cl (configuration not stated)" label_class=false
compound=CCCCCCCCCOc1ccc(CCN)cc1 label_class=true
compound=CCCCCCCCCCCCOc1ccc2[nH]cc(CCN)c2c1.Cl label_class=false

Threshold test, MIC < 6 µg/mL: CCCCCCCCCCOc1ccc2[nH]cc(CCN)c2c1.Cl
false

Next entry: CCCCCCOc1ccc2[nH]cc(CCN)c2c1.Cl
false

Lookup CCCCCCCCCCCCCCOc1ccc2[nH]cc(CCN)c2c1.Cl
false

Would you mind doing CCCCCCCCCOc1cccc(CN)c1 as well?
true

Another compound: CCCCCCCCCOc1ccc2[nH]cc(CC[N+](C)(C)C)c2c1
false

Lookup CCCCCCCCCOc1cccc(N)c1
false

====

Reported MIC values for a set of compounds
- System: Acinetobacter baumannii
- ASSAY_PROTOCOL: Antibacterial activity against Acinetobacter baumannii after 16 to 18 hrs by micro-dilution method
- Assay type: functional

Example cases with answers are listed next.
structure=CCCCCCCCCOc1cccc(N)c1 tested_on="Acinetobacter baumannii" metric=MIC result="> 80 µg/mL"
structure=CCCCCCCCCCCCCCOc1ccc2[nH]cc(CCN)c2c1.Cl tested_on="Acinetobacter baumannii" metric=MIC result="> 119 µg/mL"
structure=NCCc1c[nH]c2ccc(O)cc12 tested_on="Acinetobacter baumannii" metric=MIC result="> 56.4 µg/mL"

// lookup MIC for NCCc1c[nH]c2ccccc12
> 51 µg/mL

Now the same for COc1ccc2[nH]cc(CCN)c2c1
> 60.8 µg/mL
